B1: TBC1D10A (parent)
chain: WCLVQICEKYLPGYYSEKLEAIQL

Variants of: B1
Procedure text: protein stability index of a GFP-peptide fusion (GPS, HEK-293T) (PSI 1-6); higher = more stable;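 further: lentivirally expressed fusions sorted by FACS into six bins by GFP to DsRed ratio, PSI derived from sequencing read proportions per bin multiplied by bin number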
Test conditions: c terminus: a fixed tail appended
If the reported protein stability index equals or exceeds 3, assign label 1. If not, assign label 0.

Request: Confirm if protein stability index reported for the variant C7K is 3 or above.
Response: label 0

Request: Follow-up item: W1Q
Response: label 0

Request: Follow-up item: K18T
Response: label 0

Request: Follow-up item: Q23S
Response: label 1

Request: Follow-up item: P12W
Response: label 0

Request: Follow-up item: C2R
Response: label 1

Request: Follow-up item: Q23W
Response: label 0

Request: Follow-up item: W1R
Response: label 0

Request: Follow-up item: I22T
Response: label 0

Request: Follow-up item: Q23K
Response: label 0

Request: Follow-up item: C7Y
Response: label 1
